System: TK-10 renal
assay.method.text: NCI-60 one-dose screen, 48 h
measurement.parameters: 10 µM unless noted
About 83,000 compounds went through this panel and 20% of them were active in at least one assay; those are over-represented in the sample as a whole. The source made the active and inactive calls. How the source made its calls: active means growth percent below 10; inactive means the rest.
Hi! Could you answer with just one of these? active, inactive

Some entries whose results are on file:
1) COC(=O)c1nc(-c2ccc(C)cc2)oc1S(=O)(=O)N1CCN(c2oc(-c3ccccc3)nc2C#N)CC1; inactive
2) C(=C(\C1=NCCN1)n1cnc2ccccc21)/c1ccc2ccccc2c1; inactive
3) COc1ccc([C@@H]2[C@@H](O)C(=O)N2c2cc(OC)c(OC)c(OC)c2)cc1Cl; inactive
4) CCC(CC)N1C(=O)/C(=c2\sc3n(c2=O)C2C(NN=3)N(CC)C(=O)N2CC)c2ccccc21 (centres undefined); inactive
5) C#CCOc1ccc(C(Nc2ccc(OC)cc2)c2nnnn2C2CCCCC2)cc1 (centres undefined); inactive

Prompt: Hey, what did the test say about "c1ccc(-c2n(Cc3ccc4ccccc4c3)c3c4ccccc4c4ccccc4c3[n+]2Cc2ccc3ccccc3c2)cc1" ?
Response: active

Prompt: Answer briefly: the call reported for "CCNCCCn1c2c(c3cc(OC)c(OC)cc3c1=O)C(=O)c1cc(OC)cnc1-2" in this assay.
Response: inactive

Prompt: For "CC(C)SC1=NC(=C(C(=N1)NC2=ClC=CC=C2)C#N)C3=CC=CC=C3" , which call appears in the assay record?
Response: inactive

Prompt: Just curious, what result did "CN(c1ccc(F)cc1)S(=O)(=O)c1ccc(-c2cnc(C3CC3)o2)cc1" get here?
Response: inactive

---

Tested on: MDA-MB-435 melanoma
assay.method.text: NCI-60 one-dose screen, 48 h
measurement.parameters: 10 µM unless noted
Compounds without any hit were thinned out: in the full panel of roughly 83,000, 20% have a hit. Activity calls are given as the source filed them. How the source made its calls: active means growth percent below 10; inactive means the rest.
Could you please pick one outcome from this set? active, inactive

The examples below pair each entry with its known result.
1) Cn1ccnc1C(=O)/C=C/c1ccc(C(=O)Nc2ccc(NC(=O)CCNC(=O)c3csc(Br)n3)cc2)cc1; inactive
2) COc1ccc(OC)c([C@H]2c3[nH]c4ccccc4c3C[C@H]3C(=O)N(CCCCCCC(=O)NO)CC(=O)N23)c1; inactive
3) C=C(C)[C@@H]1CC[C@]2(C)[C@H](CC=C3[C@@H]4CC(C)(C)CC[C@]4(C(=O)NCC#CCN4CCN(C)CC4)CC[C@]32C)[C@@]1(C)CCC#N; inactive

Next item in the queue.
Prompt: How was "CCCCCCCCNC(=O)c1ccc(Cn2c(CCCC)nc3c(N)nc4ccccc4c32)cc1" classified in this test?
Response: active

---

Test system: HCT-116 colon
assay.method.text: NCI-60 one-dose screen, 48 h (100 = growth as untreated, 0 = no growth, -100 = all killed)
measurement.parameters: 10 µM unless noted
Compounds without any hit were thinned out: in the full panel of roughly 83,000, 20% have a hit.
Define the label as 1 (yes) when growth is strictly less than 40% and as 0 (no) in all remaining cases.

As a guide, the following entries are already answered.
1. O=c1oc2ccc(-c3ccc(F)cc3F)cc2c(=O)n1-c1ccc(F)c(F)c1; 1 (yes)
2. Cc1ccc(/C=C/CC(=O)Nc2ccc(C(=O)Nc3ccc(F)cc3N)nc2)cn1; 1 (yes)
3. O=C1c2c(c3c4cccnc4[nH]c3c3ccc4ccccc4c23)C(=O)N1CCN1CCNCC1; 1 (yes)

Consider now this further compound.
Prompt: Check if growth falls below 40% for "Cc1cc(=O)n2nc(-c3c[nH]c4ccccc34)sc2n1" .
Response: 0 (no)

---

System: EKVX NSCLC
assay.method.text: NCI-60 one-dose screen, 48 h (100 = growth as untreated, 0 = no growth, -100 = all killed)
measurement.parameters: 10 µM unless noted
The panel holds about 83,000 compounds, 20% with a hit somewhere; the sample as a whole holds those more often.
Classification field: rule met = growth at or over 50%; rule not met = growth under 50%.

These recorded examples may help you get a feel for the data.
1. C#Cc1ccc(NC(=O)c2ccc(/C=C/C(=O)c3nccn3C)cc2)c(F)c1; rule not met
2. O=C(CCCCCCN1CC(=O)N2[C@@H](c3ccc(Cl)c(F)c3)c3[nH]c4ccccc4c3C[C@H]2C1=O)NO; rule met
3. C=C(C)C(=O)O[C@H]1C[C@@]2(C)OC(=CC2=O)/C(CO)=C\[C@H]2OC(=O)C(=C)[C@H]12; rule not met

Prompt: In plain terms: is recorded growth at least 50% for "CN(c1ccc(Br)cc1)S(=O)(=O)c1ccc(-c2cnc(C3CC3)o2)cc1" ?
Response: rule not met

Prompt: Confirm if growth reported for the compound "C=C1C(=O)O[C@@H]2C[C@@H](C)[C@H](OC)CC(=O)[C@](C)(OC(C)=O)C[C@H](OC(=O)/C(C)=C\C)[C@@H]12" is 50% or above.
Response: rule met

Prompt: For this compound, is measured growth 50% or higher? "CCOC(=O)c1c(Nc2ccccc2)nn2c(-c3ccc(Br)cc3)ccnc12"
Response: rule met

Prompt: Assess whether reported growth for "CCOC(=O)c1nn(-c2ccccc2)c(=O)c2c(N)c(C#N)c(-c3cccs3)cc12" sits at 50% or higher.
Response: rule met

Prompt: Say whether "COC[C@]12CC[C@@H](C)[C@H](C)[C@H]1C1=CC[C@@H]3[C@@]4(C)CCCNC(C)(C)[C@@H]4CC[C@@]3(C)[C@]1(C)CC2" shows growth of 50% or more.
Response: rule met

Prompt: Kindly determine if growth recorded for "NCCN1CCN(c2nc(-c3ccccc3)nc3nc(-c4ccccc4)oc23)CC1" is above or exactly 50%.
Response: rule not met

Prompt: In plain terms: is recorded growth at least 50% for "O=C(NCCCNc1cc(-c2cn(-c3ccccc3)nc2-c2cccc(O)c2)ccn1)Nc1ccc(F)cc1" ?
Response: rule not met

Prompt: Threshold query (growth >= 50%) on "CN(C)c1ncc(/C=C2\SC(=S)N(Cc3ccccc3Cl)C2=O)s1"
Response: rule met

Prompt: Check if growth >= 50% (inclusive). Item: "COc1ccc(-c2nc(SCC(C)C)nc(N/N=C\c3cccc([N+](=O)[O-])c3)c2C#N)cc1"
Response: rule not met

Prompt: # bool: growth of "CCN(CC)c1ccc2cc(C(=O)NCCOCCOCCOCCn3cc(CCC(=O)Nc4ccc(C(=O)c5ccc(NC(=O)OC(C)(C)C)cc5)cc4)nn3)c(=O)oc2c1" >= 50%
Response: rule met

---

Test system: 786-0 renal
assay.method.text: NCI-60 one-dose screen, 48 h (100 = growth as untreated, 0 = no growth, -100 = all killed)
measurement.parameters: 10 µM unless noted
The panel holds about 83,000 compounds, 20% with a hit somewhere; the sample as a whole holds those more often.
Please note: growth exactly at 90% is n. Only values below 90% get y.

1) Oc1ccc(-c2nnc(SCc3ccc(O)c4ncccc34)n2-c2ccccc2)cc1; y
2) CN(C)C(=O)C1=NC(CO)C(=O)N(c2ccc(Cl)cc2)N1 (stereo not given); n
3) COc1cc(C2CC(c3ccc(Nc4nc(NCCO)nc(Nc5ccc(Cl)cc5)n4)cc3)=Nc3c(N)nc(N)nc3N2)cc(OC)c1OC (stereo not given); y

Prompt: For CC(=O)c1ccc(NC(=O)COc2ccc(C3SCC(=O)N3c3ccc(Br)cc3)cc2)cc1 (stereo not given) , is the recorded growth below the cut-off of 90%?
Response: n

Prompt: Does "O=C(CCCCCCN1CC(=O)N2[C@@H](c3ccc(Cl)c(F)c3)c3[nH]c4ccccc4c3C[C@H]2C1=O)NO" have growth strictly under 90%?
Response: n

Prompt: Regarding "CSc1ccc(/C(=N/N=C(N)N)c2ccccc2)cc1" , kindly confirm whether its growth is beneath 90%.
Response: y

---

Test system: CAKI-1 renal
assay.method.text: NCI-60 one-dose screen, 48 h (100 = growth as untreated, 0 = no growth, -100 = all killed)
measurement.parameters: 10 µM
The panel holds about 83,000 compounds, 20% with a hit somewhere; the sample as a whole holds those more often.
Okay, here is how we bin by growth: label 0 = under -20%, label 1 = from -20% up to 70%, label 2 = 70% and over

1. CCOC(=O)C1=C(C)N=C2Sc3ccccc3N2C1c1ccccc1 (centres undefined); label 1
2. C#C[C@]1(O)CC[C@H]2[C@@H]3CC=C4c5sc(Nc6cccc(Cl)n6)nc5CC[C@]4(C)[C@H]3CC[C@@]21C; label 0
3. COC(=O)c1nc(-c2ccc(C)cc2)oc1S(=O)(=O)N1CCN(c2oc(-c3ccccc3)nc2C#N)CC1; label 2
4. COc1cc(/C=N/n2cnc3oc(-c4ccccc4)cc3c2=N)cc(CN2CCCCC2)c1O; label 0
5. CN1CCN(c2ccc3c(C(N)=O)c(NC(=O)c4ccc(C(C)(C)C)cc4)sc3c2)CC1; label 2
6. O=[N+]([O-])c1ccc(-c2nnc(SCc3ccc(O)c4ncccc34)o2)cc1; label 1
7. O=c1oc2ccc(-c3ccc(F)cc3F)cc2c(=O)n1-c1ccc(F)c(F)c1; label 1
8. CN1CCN(c2ccc3c(c2)nc(NNC(=O)c2ccncn2)c2cccn23)CC1; label 1

In the following, a different molecule is considered.
Prompt: Which category fits this record: "CCN(CC)CCN1C(=O)c2c(c3c4cccnc4[nH]c3c3ccc4ccccc4c23)C1=O"
Response: label 1
